system: HT-29; experiment: Antiproliferative activity against human HT-29 cells assessed as inhibition of cell growth incubated for 24 hrs by MTT assay; assay type: functional, cell-based; conditions: HT-29, 24 h
Test Readout: pIC50
API: returns pIC50 as number; meaning -log10 of concentration in mol/L.

// query Item Fc1ccccc1-n1c(SCCc2c[nH]c3ccccc23)nnc1-c1ccncc1 has what recorded pIC50?
// result 5.62

// query For Fc1ccc(-n2c(SCCc3c[nH]c4ccccc34)nnc2-c2ccncc2)cc1 , what is its reported pIC50?
// result 5.24

// query Param item = Clc1cccc(-n2c(SCCc3c[nH]c4ccccc34)nnc2-c2ccncc2)c1 ; retrieve measured pIC50.
// result 5.14

// query # pIC50 lookup, item COc1cccc(-n2c(SCCc3c[nH]c4ccccc34)nnc2-c2ccncc2)c1
// result 5.44

// query Query: pIC50; subject: COc1ccc(-n2c(SCCc3c[nH]c4ccccc34)nnc2-c2ccncc2)cc1
// result 6.00
